experiment: Viability qHTS for spleen associated tyrosine kinase inhibitor (SYKi) naive MV4-11 cells (AID 1963823); settings: MV4-11 AML viability, CellTiter-Glo luminescence, 72 h; series mostly up to 45 µM; also: nearly all actives have a fitted effect of over 40% in size
Records with an inconclusive call do not appear. The source made the active and inactive calls. Calls follow the shape of the dose curve; as a rule, active = well fitted cell-killing curve with a large enough effect; inconclusive = small, poorly fitted or top-dose-only effect, or effect the other way; inactive = no such curve, though single readings can be large or run the other way.
Possible outcomes: active, inactive

>>> label("COc1cc(/C=C/C(=O)N2CCN(CC(=O)N3CCCC3)CC2)cc(OC)c1OC")
"inactive"
>>> label("COCCNCc1ccc(-c2cc3nccc(Oc4ccc(NC(=S)NC(=O)Cc5ccc(F)cc5)cc4F)c3s2)nc1")
"active"
>>> label("NS(=O)(=O)c1cc2c(cc1Cl)NC=NS2(=O)=O")
"inactive"
>>> label("O=C(/C=C/c1ccc2ccccc2n1)c1ccncc1")
"active"
>>> label("CCC(C)/C=C(C)/C=C/C1=CC2=C(Cl)C(=O)C(C)(OC(C)=O)C(=O)C2=CN1CCCCC(N)C(=O)O (stereo unspecified)")
"inactive"
>>> label("Cc1cccc(N(C)C(=S)Oc2ccc3c(c2)C2CCC3C2)c1 (stereo unspecified)")
"inactive"
>>> label("O=C1C(c2c(O)[nH]c3ccccc23)=Nc2ccccc21")
"inactive"
>>> label("CC(C)c1cc(C(=O)N2CC[C@@H](NC(=O)C3CC3)C2)n[nH]1")
"inactive"
>>> label("CCN1CCCC1CN (stereo unspecified)")
"inactive"
>>> label("CCC(CC)CC1(C(=O)Nc2ccccc2SC(=O)C(C)C)CCCCC1")
"inactive"
>>> label("Cc1ccccc1-c1cc(N2CCN(C)CC2)ncc1N(C)C(=O)C(C)(C)c1cc(C(F)(F)F)cc(C(F)(F)F)c1")
"inactive"
>>> label("COc1cc(C=C2CCC/C(=C\\c3ccc(O)c(OC)c3)C2=O)ccc1O")
"active"
>>> label("C=C1[C@@H]2CC[C@@]3(C)[C@H](c4ccoc4)OC(=O)C[C@]13O[C@H]1CC(=O)C(C)(C)[C@H](C(O)C(=O)OC)[C@]12C (stereo partly specified)")
"inactive"
>>> label("CC(C)[C@@](C)(O)[C@@H]1CN(c2nc(-c3[nH]nc4ncccc34)c(F)cc2Cl)CCN1")
"active"
>>> label("O=C1NC(=O)[C@@]2(CCOc3ccc(F)cc32)N1")
"inactive"
>>> label("CC1(C)CC[C@]2(C(=O)O[C@@H]3O[C@H](CO)[C@@H](O)[C@H](O)[C@H]3O)CC[C@]3(C)C(=CCC4[C@@]5(C)C[C@@H](O)[C@H](O)[C@@](C)(CO)C5[C@H](O)C[C@]43C)C2[C@@H]1O (stereo partly specified)")
"inactive"

====

assay: Quantitative highthroughput screen to assess conditional lethalithy of P12 Ichikawa cells grown in RPMI1640 with untreated serum (RPMI+s) (AID 1963881); conditions: ATP luminescence, 48 h; viability; series mostly up to 45.8 µM; also: nearly all actives have a fitted effect of over 35% in size;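 as to viability: 100% = DMSO wells and 0% = empty wells without cells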
Records with an inconclusive call do not appear. The source made the active and inactive calls. Calls come from the whole dose curve; as a rule, active = well fitted cell-killing curve with a large enough effect; inconclusive = small, poorly fitted or top-dose-only effect; inactive = flat fitted curve, though single readings scatter.
Possible outcomes: class 1 = active, class 0 = inactive

>>> label("NC(=O)c1ccc(N(C(N)=O)c2c(F)cccc2F)nc1-c1ccc(F)cc1F")
"class 0"
>>> label("COC(=O)[C@@H]1CC2=CC(=O)CC[C@]2(C)[C@@]23O[C@@H]2C[C@@]2(C)[C@H](CC[C@@]24CCC(=O)O4)[C@@H]13")
"class 0"
>>> label("NS(=O)(=O)OC[C@@H]1C[C@@H](n2ccc3c(N[C@H]4CCc5ccccc54)ncnc32)C[C@H]1O")
"class 1"
>>> label("C[C@@H](Cc1cc2c(c(C(N)=O)c1)N(CCCO)CC2)NCCOc1ccccc1OCC(F)(F)F")
"class 0"
>>> label("COc1ncc(-c2ccc3c(Nc4cc(Oc5cc(F)cc(F)c5)cc(C(=O)O)c4)c(S(=O)(=O)NC4CC4)cnc3c2)c(OC)n1")
"class 0"
>>> label("COc1cc(OC2CCN(C)CC2)ccc1Nc1ncc2c(n1)n(C1CCCC1)c(=O)n2C")
"class 1"
>>> label("COc1cc(NC(=O)c2ccc(-c3ccc(Cl)cc3)o2)cc(OC)c1")
"class 0"
>>> label("NC(=O)[C@H]1CCS[C@@H]2C[C@]3(CCCN3C(=O)Cc3ccc(NC(=O)COc4ccc(Cl)cc4Cl)cc3)C(=O)N12")
"class 1"
>>> label("Nc1nc(F)nc2c1ncn2[C@@H]1O[C@H](CO)[C@@H](O)[C@@H]1O")
"class 1"
>>> label("CC(C)(C)NCC(O)c1ccc(O)c(CO)c1 (stereo unspecified)")
"class 1"
>>> label("O=c1c2ccccc2nc2n1CCc1c-2[nH]c2ccccc12")
"class 1"
>>> label("CCN(CC)CCNC(=O)c1c(C)[nH]c(C=C2C(=O)Nc3ccc(F)cc32)c1C")
"class 1"
>>> label("CC(C)(C)[C@H](NC(=O)c1ccc(N)c(Cl)c1)C(=O)N1CCC[C@@H]1C(=O)N[C@H](C#N)CC(=O)O")
"class 1"
>>> label("C[C@@]12C[C@@]3(O)O[C@@H](O1)[C@]1(COC(=O)c4ccccc4)[C@@H]3C[C@@]12O[C@@H]1O[C@H](CO)[C@@H](O)[C@H](O)[C@@H]1O")
"class 0"
>>> label("N#CC(=C(N)Sc1ccc(N)cc1)c1ccccc1C(F)(F)F")
"class 1"
>>> label("CC(C)(C(=O)NCC(F)(F)C(F)(F)F)C(=O)N[C@@H]1C(=O)Nc2ccccc2-c2ccccc21")
"class 1"
>>> label("C[C@@]12C(=O)OC(=O)[C@@]1(C)C1CCC2O1")
"class 1"
>>> label("CO[C@H]1C=CC=C(C)C(=O)NC2=CC(=O)C(NCCN(C)C)=C(C[C@@H](C)C[C@H](OC)[C@@H](O)[C@@H](C)C=C(C)[C@@H]1OC(N)=O)C2=O")
"class 1"
>>> label("CC1=C(C(=O)O)N2C(=O)[C@@H](NC(=O)[C@H](N)C3=CCC=CC3)[C@H]2SC1")
"class 0"
>>> label("Oc1ccc(-c2nc(-c3ccc(F)cc3)c(-c3ccncc3)[nH]2)cc1")
"class 1"
>>> label("COc1ccc(-c2coc3cc(O)cc(O)c3c2=O)cc1")
"class 0"

====

assay: Quantitative highthroughput screen to assess conditional lethalithy of P12 Ichikawa cells grown in Human Plasma-Like Medium with dialyzed fetal bovine serum (HPLM+ds) (AID 1963879); conditions: ATP luminescence, 48 h; viability; series mostly up to 45.8 µM; also: nearly all actives have a fitted effect of over 35% in size
Inconclusive results are not listed. The source made the active and inactive calls. Calls come from the whole dose curve; as a rule, active = well fitted cell-killing curve with a large enough effect; inconclusive = small, poorly fitted or top-dose-only effect; inactive = flat fitted curve, though single readings scatter.
Outcomes: active, inactive

>>> label("O=C(Cc1ccc(-c2ccc(OCCN3CCOCC3)cc2)cn1)NCc1ccccc1")
"active"
>>> label("O=c1ccn([C@@H]2O[C@H](CO)[C@H](O)[C@H]2O)c(=O)[nH]1")
"inactive"
>>> label("O=C(c1ccc(Nc2nccc(-c3cc4ccccc4s3)n2)cc1)N1CCC(N2CCCC2)CC1")
"active"
>>> label("Cn1cc(-c2ccc3nnc(C(F)(F)c4ccc5ncccc5c4)n3n2)cn1")
"inactive"
>>> label("Cc1ccc(C)c(OCCCC(C)(C)C(=O)O)c1")
"inactive"
>>> label("CC[C@]1(O)C[C@H]2CN(CCC3=c4ccccc4=N[C]3[C@@](C(=O)OC)(c3cc4c(cc3OC)N(C)[C@H]3[C@@](O)(C(N)=O)[C@H](O)[C@]5(CC)C=CCN6CC[C@]43[C@@H]65)C2)C1")
"active"
>>> label("CC(=O)O[C@]1(C(C)=O)CC[C@H]2[C@@H]3C=C(C)C4=CC(=O)CC[C@]4(C)[C@@H]3CC[C@@]21C")
"inactive"
>>> label("N[C@@]1(C(=O)O)CS(=O)(=O)[C@H]2[C@H](C(=O)O)[C@H]21")
"inactive"
>>> label("CCN1CCN(C(=O)N[C@H](C(=O)N[C@@H]2C(=O)N3C(C(=O)O)=C(CSc4nnnn4C)CS[C@@H]23)c2ccc(O)cc2)C(=O)C1=O")
"inactive"
>>> label("CCCCc1oc2ccccc2c1C(=O)c1cc(I)c(OCCN(CC)CC)c(I)c1")
"inactive"
>>> label("Cc1c(NC(=O)c2ccc(C(C)(C)C)cc2)cccc1-c1cn(C)c(=O)c(Nc2ccc(C(=O)N3CCOCC3)cc2)n1")
"inactive"

====

assay: Viability qHTS for spleen associated tyrosine kinase inhibitor (SYKi) naive MV4-11 cells (AID 1963823); details: MV4-11 AML viability, CellTiter-Glo luminescence, 72 h; series mostly up to 45 µM; also: nearly all actives have a fitted effect of over 40% in size
Inconclusive results are not listed. Activity calls are given as the source filed them. Calls follow the shape of the dose curve; as a rule, active = well fitted cell-killing curve with a large enough effect; inconclusive = small, poorly fitted or top-dose-only effect, or effect the other way; inactive = no such curve, though single readings can be large or run the other way.
Labels: true for active, false for inactive

>>> label("COc1cc2c(cc1O)CC(O)(CO)C(CO)C2c1ccc(OC2OC(CO)C(O)C(O)C2O)c(OC)c1 (stereo not drawn)")
"false"
>>> label("Cc1ccc(NS(=O)(=O)c2cccc(C#N)c2)c2[nH]cc(C#N)c12")
"true"
>>> label("c1ccc(Cc2ncc3c(n2)CCNCC3)cc1")
"false"
>>> label("Oc1cccc(Nc2ncnc3sc4c(c23)CCCC4)c1")
"true"
>>> label("CC/C=C\\CC1C(=O)CCC1CC(=O)OC (stereo not drawn)")
"false"
>>> label("CCCCCCCCCCCCCCCC(=O)NCCO")
"false"
>>> label("COC(=O)C1=CO[C@@H](O[C@@H]2O[C@H](CO)[C@@H](O)[C@H](O)[C@H]2O)C2C1C(=O)C[C@H]2C (stereo partly drawn)")
"false"
>>> label("CN(C)CCCOc1ccc(-c2ccc3ncc4c(c3c2)n(C2CCOCC2)c(=O)n4C)cn1")
"true"
>>> label("COC(=O)C1=CO[C@@H](O[C@@H]2O[C@H](COC(=O)/C=C/c3cc(OC)c(O)c(OC)c3)[C@@H](O)[C@H](O)[C@H]2O)[C@@H]2C(CO)=CC[C@H]12")
"false"
>>> label("NC(=O)C1(N2CCCCC2)CCN(CCCN2c3ccccc3CCc3ccc(Cl)cc32)CC1")
"true"
>>> label("C=C(COC(=O)CC(C)C)C1Cc2cc(C(C)=O)ccc2O1 (stereo not drawn)")
"false"
>>> label("Nc1nnc(-c2cccc(Cl)c2Cl)c(N)n1")
"false"
>>> label("CC1(CO)CC2C(O)C(=O)C3(CO)CC3(C)C2C1 (stereo not drawn)")
"false"
>>> label("O=C(Nc1ccc(-c2ccc(Cl)c(Cl)c2)cc1)C1=C(O)c2ccccc2S(=O)(=O)N1")
"true"
>>> label("C=C1[C@H]2[C@H](O[C@@H]3O[C@H](COC(=O)/C=C/c4cc(OC)c(O)c(OC)c4)[C@@H](O)[C@H](O)[C@H]3O)OC=C(C(=O)O)[C@H]2C[C@@H]1O")
"false"
>>> label("Cc1c(NC(C)C)c(=O)n(-c2ccccc2)n1C")
"false"
>>> label("c1ccc2c(c1)CCc1ccccc1N2")
"false"
>>> label("O=C(O)Cc1csc(-c2ccc(Cl)cc2)n1")
"false"
>>> label("OC(CCN1CCCCC1)(c1ccccc1)C1CC2C=CC1C2 (stereo not drawn)")
"false"
>>> label("NC1CCC(N[C@@H]2C[C@H]2c2ccccc2)CC1 (stereo partly drawn)")
"false"
>>> label("CC(C)C1(O[C@@H]2O[C@H](CO)[C@@H](O)[C@H](O)[C@H]2O)CC=C(CO)CC1 (stereo partly drawn)")
"false"
>>> label("C=C1C2(C)CC3C4(C)C=CC(=O)OC(C)(C)C4CCC3(C)C1(C(=O)OC)C(=O)C(C)(O)C2=O (stereo not drawn)")
"false"
>>> label("O=C1Nc2nc(-c3c(O)cccc3OCC3CC3)cc([C@@H]3CCCNC3)c2CO1")
"true"
>>> label("Cc1cc(N2CCCCC2)nc2ccccc12")
"false"
>>> label("CCC(C(=O)O)c1ccc(N2Cc3ccccc3C2=O)cc1 (stereo not drawn)")
"false"
>>> label("C[C@@]12CC3(S(=O)(=O)O)OC(O1)[C@]1(COC(=O)c4ccccc4)[C@H]3C[C@]21O[C@@H]1O[C@H](CO)[C@@H](O)[C@H](O)[C@H]1O")
"false"
>>> label("NC(=S)N/N=C/c1cccnc1")
"false"
>>> label("CS(=O)(=O)c1ccc([C@@H](CC2CCCC2)C(=O)Nc2nccs2)cc1")
"true"
